- target or system: hSTING(R232) (Homo sapiens, UniProt Q86WV6, H232R)
- Sequence (Q86WV6 whole entry H232R): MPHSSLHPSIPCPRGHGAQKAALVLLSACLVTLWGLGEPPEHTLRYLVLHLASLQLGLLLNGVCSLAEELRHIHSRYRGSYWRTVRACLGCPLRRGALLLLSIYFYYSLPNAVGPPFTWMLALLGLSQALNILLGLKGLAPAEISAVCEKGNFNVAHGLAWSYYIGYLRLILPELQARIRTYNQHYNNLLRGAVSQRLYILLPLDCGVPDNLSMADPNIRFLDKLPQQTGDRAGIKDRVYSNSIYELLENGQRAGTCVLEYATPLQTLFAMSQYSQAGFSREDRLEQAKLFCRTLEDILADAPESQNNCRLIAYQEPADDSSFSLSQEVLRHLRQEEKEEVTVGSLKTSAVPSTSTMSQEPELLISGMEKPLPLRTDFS
- assay info: Luciferase reporter assay in HEK293T-hSTING-Luciferase cells, R232 (wild type) human STING
- Format: cell-based
- condition: 20 hr stimulation, read-out: R232 human activity (EC50 range)
- Source text: Stable Cell Line Generation • a) Stable STING expressing cells—Stable HEK293T STING-expressing cell lines were generated using plasmids purchased from Invivogen, CA, USA, that contain STING cDNA cloned into the pUNO-1 vector under hEF1-HTLV promoter and containing the Blasticidin selection cassette. […]
pEC50: −log10 of the molar value.
measured attribute: pEC50

Known results for compounds:
1. COc1ccc(F)c(CN2C(=O)N(C)[C@@H](C)c3ccc(C(=O)NCc4c(F)cc(F)cc4F)cc32)c1 [Example 183] | > 6.00
2. C[C@H]1c2ccc(C(=O)NCc3c(F)cc(F)cc3F)cc2N(Cc2c(F)cc(OCCCN)cc2F)C(=O)N1C [Example 280] | > 6.00
3. C[C@H]1c2ccc(C(=O)NCc3c(F)cc(O)cc3F)cc2N(Cc2c(F)cc(O)cc2F)C(=O)N1C [Example 150] | > 6.00

Input line: State its pEC50 on hSTING(R232) (Homo sapiens, UniProt Q86WV6, H232R): CN1Cc2ncc(C(=O)NCc3c(F)cc(F)cc3F)cc2N(Cc2cc(F)cc(F)c2)C1=O [Example 72]
Output line: 5.00 to 6.00

Input line: Same question for Cc1cccc(F)c1CN1C(=O)N(C)C(C)c2ccc(C(=O)NCc3c(F)cc(F)cc3F)cc21 (centres unmarked) [Example 161] please.
Output line: 5.00 to 6.00

Input line: Then this compound: C[C@H]1c2ccc(C(=O)NCc3c(F)cc(F)cc3F)cc2N(Cc2c(F)ccc(OCCO)c2F)C(=O)N1C [Example 256]
Output line: > 6.00

###

- target or system: hSTING(R232) (Homo sapiens, UniProt Q86WV6, H232R)
- assay info: Luciferase reporter assay in HEK293T-hSTING-Luciferase cells, R232 (wild type) human STING
- Assay type: cell-based
- condition: 20 hr stimulation, read-out: R232 human activity (EC50 range)
pEC50: −log10 of the molar value.
Attribute: pEC50

Recorded results for 3 compounds are shown here.
1. Cc1cccc(CN2C(=O)N(C)[C@@H](C)c3ccc(C(=O)NCc4c(F)cc(F)cc4F)cc32)c1F [Example 168] | > 6.00
2. CN1Cc2ccc(C(=O)NCc3c(F)cc(F)cc3F)cc2N(Cc2ccc(F)cc2Cl)C1=O [Example 17] | 5.00 to 6.00
3. C[C@H]1c2ccc(C(=O)NCc3c(F)cc(F)cc3F)cc2N(Cc2c(F)cc(OCCO)cc2F)C(=O)N1C [Example 80] | > 6.00

Now for the compound whose pEC50 we want.
Input line: Look at this compound and give its reported pEC50. CC1c2ccc(C(=O)NCc3c(F)cc(F)cc3F)cc2N(Cc2ccc(Cl)cc2F)C(=O)N1C (stereo not shown) [Example 219]
Output line: > 6.00

###

- target or system: hSTING(R232) (Homo sapiens, UniProt Q86WV6, H232R)
- assay info: Luciferase reporter assay in HEK293T-hSTING-Luciferase cells, R232 (wild type) human STING
- Type: cell-based
- condition: 20 hr stimulation, read-out: R232 human activity (EC50 range)
- Text: Stable Cell Line Generation • a) Stable STING expressing cells—Stable HEK293T STING-expressing cell lines were generated using plasmids purchased from Invivogen, CA, USA, that contain STING cDNA cloned into the pUNO-1 vector under hEF1-HTLV promoter and containing the Blasticidin selection cassette. […]
pEC50: −log10 of the molar value.
measured attribute: pEC50

# count of solved cases: 6
1) C[C@H]1c2ccc(C(=O)NCc3c(F)cc(F)cc3F)cc2N(Cc2c(F)ccc(O)c2F)C(=O)N1C [Example 255] | > 6.00
2) C[C@H]1c2ccc(C(=O)NCc3c(F)cc(F)cc3F)cc2N(Cc2c(F)cc(F)cc2OP(=O)(O)O)C(=O)N1C [Example 105] | > 6.00
3) Cc1cc(CN2C(=O)N(C)C(C)c3ccc(C(=O)NCc4c(F)cc(F)cc4F)cc32)ccn1 (stereo not shown) [Example 207] | 5.00 to 6.00
4) CC1c2ccc(C(=O)NCc3c(F)cc(F)cc3F)cc2N(Cc2c(F)cccc2Cl)C(=O)N1C (racemic) [Example 74] | > 6.00
5) C[C@H]1c2ccc(C(=O)NCc3c(F)cc(F)cc3F)cc2N(Cc2ccc(N)cc2)C(=O)N1C [Example 243] | 5.00 to 6.00
6) COc1cccc(CN2C(=O)N(C)Cc3ccc(C(=O)NCc4c(F)cc(F)cc4F)cc32)c1F [Example 63] | 5.00 to 6.00

Pending molecule:
Input line: Field request: pEC50 | item: Cn1cnc(N2Cc3ccc(C(=O)NCc4c(F)cc(F)cc4F)cc3N(Cc3c(F)cccc3Cl)C2=O)c1 [Example 34]
Output line: < 5.00
